measured-on: T1, human TNFR2 expressed on cells (stably overexpressed on HEK293T, CHO-K1 or Jurkat cells; endogenous on THP1) (human (Homo sapiens), UniProt P20333 23-461)
T1 construct: also called 人TNFR2; hTNFR2
T1 sequence: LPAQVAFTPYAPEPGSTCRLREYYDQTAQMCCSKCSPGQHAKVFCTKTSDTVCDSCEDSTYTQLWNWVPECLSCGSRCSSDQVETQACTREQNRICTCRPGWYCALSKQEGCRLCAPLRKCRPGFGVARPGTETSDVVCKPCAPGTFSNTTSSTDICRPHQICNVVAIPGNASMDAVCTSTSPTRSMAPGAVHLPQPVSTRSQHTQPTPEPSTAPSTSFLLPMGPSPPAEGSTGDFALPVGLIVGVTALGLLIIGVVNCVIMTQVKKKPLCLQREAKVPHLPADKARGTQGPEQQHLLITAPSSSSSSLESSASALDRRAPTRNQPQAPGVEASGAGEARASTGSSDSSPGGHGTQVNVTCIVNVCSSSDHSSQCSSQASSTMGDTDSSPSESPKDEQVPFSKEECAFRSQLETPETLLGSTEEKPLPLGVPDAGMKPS
experiment: binding to cells stably overexpressing human TNFR2 (flow cytometry / imaging; text says HEK293T, table title says CHO-K1)
parameter-measured: EC50

Query: // returns reported EC50 for input R2_mAb-6 (antibody, V domains shown, also called R2-6) VH: QVQLVQSGAEVKKPGASVKVSCKASGYTFLSYGLSWVRQAPGQGLEWMGWINAYNGNTNYAQNLQDRVTMTTDTSTSTAYMELRSLRSDDMAVYYCARWDILTAYYSSDAFDIWGQGTMVTVSS VL: DIVMTQTPLSSPVTLGQPASISCRSSQSLVHSDGNTYLNWLQQRPGQPPRLLIYKVSNRFSGVPDRFSGSGAGTDFTLKISRVEAEDVGVYYCTQTTQFPITFGQGTRLEIK
Result: 0.14 nM
